- TARGET ENTITY: δ opioid receptor of the mouse isolated vas deferens (mouse), P32300
- Sequence (P32300 whole entry, stated change not applied): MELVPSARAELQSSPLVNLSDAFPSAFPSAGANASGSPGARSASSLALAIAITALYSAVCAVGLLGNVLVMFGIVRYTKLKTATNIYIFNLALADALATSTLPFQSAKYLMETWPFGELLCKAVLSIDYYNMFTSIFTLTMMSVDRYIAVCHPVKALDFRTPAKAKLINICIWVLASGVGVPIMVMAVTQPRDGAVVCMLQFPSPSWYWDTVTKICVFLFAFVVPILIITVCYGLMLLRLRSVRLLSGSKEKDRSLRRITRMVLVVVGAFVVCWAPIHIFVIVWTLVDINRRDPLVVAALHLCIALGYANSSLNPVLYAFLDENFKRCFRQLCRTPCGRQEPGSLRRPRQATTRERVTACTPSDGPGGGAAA
- PROTOCOL DETAILS: cell-based or functional assay
Square brackets hold non-standard residues; d marks the D form. Primed or numbered codes have the meaning given here. Ends that are not written are not given here. * marks the point of attachment. NH(3,5-(CF3)2-benzyl) = FC(F)(F)c1cc(CN*)cc(C(F)(F)F)c1; OBzl(3,5-(CF3)2) = FC(F)(F)c1cc(CO*)cc(C(F)(F)F)c1; Glc″ = glucosyl on the serine side-chain oxygen; Dmt = Cc1cc(O)cc(C)c1C[C@H](N)C(=O)O; Nle = CCCC[C@H](N)C(=O)O
VALUE TYPE: MVD IC50 (nM)
Give the quantity in nM, number only.

Req: What does the data say about its MVD IC50? Entry: YAGFXPLW (here or on the partner: D-Ala at 2; Nle at 5 (written X); C-terminal NH-3,5-Bzl(CF3)2 amide) [TyrDAlaGlyPheNleProLeuTrpNHBn(CF3)2]
Resp: 13.6

Req: Endpoint output: MVD IC50 of Y[dA]GFMPLW-{OBzl(3,5-(CF3)2)} [TyrDAlaGlyPheMetProLeuTrpOBn(CF3)2] . Value?
Resp: 22.3

Req: Record request: MVD IC50 value, item YAGFMPLW (here or on the partner: D-Ala at 2; Met(O) at 5; C-terminal O-3,5-Bzl(CF3)2 ester) [TyrDAlaGlyPheMet(O)ProLeuTrpOBn(CF3)2]
Resp: 33

Req: What value of MVD IC50 has been recorded for this entry: Y[dA]GFLPLW-{OBzl(3,5-(CF3)2)} [TyrDAlaGlyPheLeuProLeuTrpOBn(CF3)2]
Resp: 101

Req: Can you look up the measured MVD IC50 of Y[dA]GFFPLW-{OBzl(3,5-(CF3)2)} [TyrDAlaGlyPhePheProLeuTrpOBn(CF3)2] for me?
Resp: 905

Req: Could you tell me which MVD IC50 is on file for Y[dA]GFGPLW-{OBzl(3,5-(CF3)2)} (also: TFA salt) [TyrDAlaGlyPheGlyProLeuTrpOBn(CF3)2] ?
Resp: 172

Req: Quick one: MVD IC50 for Y[dA]GF[Nle]S(Glc″)LW-{NH(3,5-(CF3)2-benzyl)} [TyrDAlaGlyPheNleSer(OGlu)LeuTrpNHBn(CF3)2] ?
Resp: 18

Req: # query: MVD IC50 of entry [Dmt][dA]GFMPLW-{OBzl(3,5-(CF3)2)} [DmtDAlaGlyPheMetProLeuTrpOBn(CF3)2]
Resp: 1.3
